These data points were gathered from the supplement of paper PMC10567573.

B1: LCOR (parent)
chain: PCAGSTSLSHSPGCSSTQGNGRPG

# Variants of: B1
# protocolDescription: protein stability index of a GFP-peptide fusion (GPS, HEK-293T) (PSI 1-6); higher = more stable;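 also: lentivirally expressed fusions sorted by FACS into six bins by GFP to DsRed ratio, PSI derived from sequencing read proportions per bin multiplied by bin number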
# experimentalParameters: c terminus: a fixed tail appended
So I've got a bunch of variants here, and I need their protein stability index values.
Numbers only.

Look over these answered cases.
{"itemSequence": "PCAGSTSLSHSPGCSSTQGNGRNG [P23N]", "protein stability index": 3.79}
{"itemSequence": "PCYGSTSLSHSPGCSSTQGNGRPG [A3Y]", "protein stability index": 3.21}
{"itemSequence": "PCAGSTSLSHSSGCSSTQGNGRPG [P12S]", "protein stability index": 3.55}
{"itemSequence": "PCAGSTSLSHSPGCSSTQGNDRPG [G21D]", "protein stability index": 3.95}
{"itemSequence": "PCAGSTSLSHSPGCSSTQGNGRPP [G24P]", "protein stability index": 3.42}
{"itemSequence": "PCAGSTSLSHSPGCSSTQGNGRPA [G24A]", "protein stability index": 3.38}
{"itemSequence": "PCAGSTILSHSPGCSSTQGNGRPG [S7I]", "protein stability index": 1.92}
{"itemSequence": "PCAGSTSLSHSPGCSSTQGNGREG [P23E]", "protein stability index": 3.39}

// input: 2 variants below; output: protein stability index for each
1. PCAGSTSLSHSLGCSSTQGNGRPG [P12L]
2. PCAGSTSLSHSPGCSSTQGNGRAG [P23A]

3.23
3.78
